ASSAY_NAME: Primary qHTS for Inhibitors of ATXN expression; further: nearly all actives have a fitted effect of over 55% in size
DETAILS: HEK-293 ATXN2-luciferase reporter, luminescence, 24 h; series mostly up to 57 µM
Among all 360,000 compounds or so, about 2,600 (0.72%) were called active. Not shown: some 5% with an inconclusive outcome. The call rests on the fitted dose curve; in most records, active means well fitted inhibition curve with a large enough effect; inconclusive means small, poorly fitted or top-dose-only effect; inactive means no such curve, though single readings can be large or run the other way. The entries come from a sample that favours actives as a whole.
Your reply should match one of these outcome classes. true (1) for active, false (0) for inactive

Some entries whose results are on file:
MOLECULE	DISCRETE_LABEL
NC(=O)CSc1oc(-c2cccs2)nc1S(=O)(=O)c1ccccc1	false (0)
CC1CC(C)(C)n2c(O)c(N=NC(N)=S)c3cccc1c32 (stereo unspecified)	true (1)
CCCCS(=O)(=O)c1oc(-c2cccs2)nc1S(=O)(=O)c1ccccc1	true (1)
COc1ccccc1N1CCN(c2ncnc3onc(-c4ccc(F)cc4)c23)CC1	false (0)

Per the records of this test, what outcome belongs to CCCCC[C@H](C)N1C[C@@H](COCc2ccccc2)Oc2cc(N3CC[C@@H](N(C)C)C3)ccc2S1(=O)=O ? true (1)

Per the records of this test, what outcome belongs to COc1cc(/C=C/C(N)=O)cc(OC)c1OC ? false (0)

###

ASSAY_NAME: Primary qHTS for Inhibitors of ATXN expression; further: nearly all actives have a fitted effect of over 55% in size
DETAILS: HEK-293 ATXN2-luciferase reporter, luminescence, 24 h; series mostly up to 57 µM
Among all 360,000 compounds or so, about 2,600 (0.72%) were called active. About 5% were inconclusive and are not listed. The call rests on the fitted dose curve; in most records, active means well fitted inhibition curve with a large enough effect; inconclusive means small, poorly fitted or top-dose-only effect; inactive means no such curve, though single readings can be large or run the other way. What follows is part of a selection rich in actives, with near analogues and random picks from the rest.
Your reply should match one of these outcome classes. Y (active), N (inactive)

Some entries whose results are on file:
COMPOUND	DISCRETE_LABEL
CN1CCC[C@@H]1CCO[C@](C)(c1ccccc1)c1ccc(Cl)cc1	Y
CCc1nc2ccc(C(=O)N(C)CCN(C)C)cn2c1N(CC)CCOC	N
CCN(CC)c1ccc(C2C(C(N)=O)=C(C)Nc3nc(SCc4ccccc4)nn32)cc1 (stereo not given)	N

Per the records of this test, what outcome belongs to CC(C)(c1ccccc1)c1ccc(OCCN2CCCC2)cc1 ? N

Per the records of this test, what outcome belongs to CN(C)C(=O)c1cccc(-c2cnc3sc(NCc4ccc5c(c4)OCO5)nn23)c1 ? N

###

ASSAY_NAME: Primary qHTS for Inhibitors of ATXN expression; further: nearly all actives have a fitted effect of over 55% in size
DETAILS: HEK-293 ATXN2-luciferase reporter, luminescence, 24 h; series mostly up to 57 µM
About 2,600 (0.72%) of roughly 360,000 compounds were called active. Inconclusive results (about 5%) are left out. Calls come from the whole dose curve; as a rule, active = well fitted inhibition curve with a large enough effect; inconclusive = small, poorly fitted or top-dose-only effect; inactive = no such curve, though single readings can be large or run the other way. For the sample, actives were picked, then their nearest neighbours and some compounds at random.
Your reply should match one of these outcome classes. YES (active), NO (inactive)

COMPOUND	DISCRETE_LABEL
C=CCC[C@@H](CCCCC)OC(=O)/C=C/[C@@H](O)[C@H](O)C[C@H](O)CC=C	NO
COCOCCn1cc(CN2CCS(=O)(=O)N(Cc3ccc(-c4cccc(N(C)C)c4)cc3)C(CC(C)C)C2=O)nn1 (stereo not given)	NO
COC(=O)c1c(NC(=O)C(C)Oc2ccc(Cl)c(C)c2)sc(C)c1C (stereo not given)	NO
COCOCCn1cc(CN2CCS(=O)(=O)N(Cc3ccc(-c4ccc(OC)cc4)cc3)C(CC(C)C)C2=O)nn1 (stereo not given)	YES
COc1ccccc1OCCNCC(O)COc1cccc2[nH]c3ccccc3c12 (stereo not given)	YES
CCCCN1CC(COCc2ccccc2)OCCS1(=O)=O (stereo not given)	NO
COc1ccc(Cc2nnc(SC)[nH]c2=O)cc1	NO
COc1cc(NC(=O)CN2CCN(S(=O)(=O)c3ccc(Br)cc3)CC2)cc(OC)c1	NO
Cc1ccc(-n2ncc3c(=O)n(Cc4cccc(C(F)(F)F)c4)cnc32)cc1C	NO
CC(O)CNCCOc1cccc(Oc2ccccc2)c1 (stereo not given)	NO

Per the records of this test, what outcome belongs to COc1cccc2sc(N(CCCN(C)C)C(=O)C(c3ccccc3)c3ccccc3)nc12 ? YES

Per the records of this test, what outcome belongs to Cc1ccccc1Cn1nc(C)c(NC(=O)c2cc(-c3ccc(F)cc3)on2)c1C ? NO

Per the records of this test, what outcome belongs to COc1ccc(CCNC(=O)CCc2ccccc2O)cc1OC ? NO
